Entry source: paper PMC8958504

- study_target: hMAO-B (Homo sapiens, UniProt P27338)
- Sequence (P27338 whole entry): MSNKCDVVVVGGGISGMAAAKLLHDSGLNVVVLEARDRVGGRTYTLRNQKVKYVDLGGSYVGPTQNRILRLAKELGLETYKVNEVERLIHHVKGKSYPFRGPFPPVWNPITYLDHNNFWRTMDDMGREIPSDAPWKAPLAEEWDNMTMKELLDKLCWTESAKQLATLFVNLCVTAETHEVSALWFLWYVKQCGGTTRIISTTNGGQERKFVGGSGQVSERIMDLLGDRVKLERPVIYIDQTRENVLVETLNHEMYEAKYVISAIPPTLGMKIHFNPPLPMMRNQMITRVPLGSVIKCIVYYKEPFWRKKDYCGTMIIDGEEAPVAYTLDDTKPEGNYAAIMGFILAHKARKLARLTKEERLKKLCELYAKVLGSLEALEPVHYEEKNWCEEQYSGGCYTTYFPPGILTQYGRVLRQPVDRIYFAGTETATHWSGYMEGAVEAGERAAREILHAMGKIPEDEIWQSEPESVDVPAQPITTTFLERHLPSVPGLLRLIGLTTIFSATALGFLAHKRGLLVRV
- experiment_notes: biochemical
- measurement_setup: read-out: hMAO-B (IC50); recombinant hMAO-B, p-tyramine substrate
Consider the following compounds; for each one, report its pIC50.
Recall that pIC50 is obtained by taking minus log10 of the concentration measured in molar.

Problem: Requested field: pIC50. Item: C#CCNC(=O)/C=C/c1ccc(O)cc1
Solution: 4.51

Problem: Requested field: pIC50. Item: C#CCn1nc(/C=C/c2ccc(OC)cc2)oc1=O
Solution: 5.09

Problem: Requested field: pIC50. Item: C#CCn1nc(/C=C/c2cccc(OC)c2)oc1=O
Solution: 6.19

Problem: Requested field: pIC50. Item: O=c1[nH]nc(/C=C/c2ccc3c(c2)OCO3)o1
Solution: 4.56

Problem: Requested field: pIC50. Item: O=c1[nH]nc(/C=C/c2cccc([N+](=O)[O-])c2)o1
Solution: 5.97

Problem: Requested field: pIC50. Item: O=c1[nH]nc(/C=C/c2ccc(O)c(O)c2)o1
Solution: 5.24

Problem: Requested field: pIC50. Item: O=c1[nH]nc(/C=C/c2ccc(O)cc2)o1
Solution: 4.45

Problem: Requested field: pIC50. Item: C#CCn1nc(/C=C/c2ccccc2)oc1=O
Solution: 5.01

Problem: Requested field: pIC50. Item: Oc1ccc(/C=C/c2cc(O)cc(O)c2)cc1 [(E)-resveratrol, reference compound]
Solution: 4.52
